The reported measurements were obtained from patent US20070244048A1.

# target.or.system: rat NMUR2 (rat, UniProt Q9ESQ4 1-395)
# Sequence (Q9ESQ4 whole entry): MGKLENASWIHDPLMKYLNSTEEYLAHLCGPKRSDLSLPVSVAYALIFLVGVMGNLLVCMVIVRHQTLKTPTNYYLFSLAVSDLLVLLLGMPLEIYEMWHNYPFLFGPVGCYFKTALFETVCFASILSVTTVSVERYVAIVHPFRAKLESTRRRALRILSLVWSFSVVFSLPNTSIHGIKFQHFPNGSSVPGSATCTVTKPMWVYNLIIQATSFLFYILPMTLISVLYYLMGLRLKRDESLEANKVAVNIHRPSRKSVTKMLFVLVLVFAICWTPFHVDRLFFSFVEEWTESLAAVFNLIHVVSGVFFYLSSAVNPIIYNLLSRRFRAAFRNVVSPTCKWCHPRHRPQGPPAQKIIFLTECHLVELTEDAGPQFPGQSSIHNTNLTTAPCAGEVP
# measurement.description: cell-based or functional assay
Starred links: 1 amine or outer side, 2 acyl side, 3 side chain; linkers in the order of their positions; H or OH if unused. Non-standard residues stand in square brackets, D forms with d. No end group written: not given here. *: point of attachment. Ttds = 1-amino-4,7,10-trioxa-13-tridecanamine succinimic acid spacer, O=C(CCC(=O)[*:2])NCCCOCCOCCOCCCN[*:1]; (PEG)2 40 kDa = branched PEG of 40 kDa linked via the Cys side-chain thiol (code C2 = Cys(PEG)2 40 kDa); Succinimide(1-Et,3-yl) = CCN1C(=O)CC(*)C1=O; Palmitoyl = CCCCCCCCCCCCCCCC(=O)*
Catalogue of % Activity (FLIPR) readings, one per entry.
State the answer as a number, implicitly in %.

binder="Ac-C(Succinimide(1-Et,3-yl))[Ttds]FLFRPRN-NH2 (SMILES CCN1C(=O)CC(SC[C@H](NC(C)=O)C(=O)NCCCOCCOCCOCCCNC(=O)CCC(=O)N[C@@H](Cc2ccccc2)C(=O)N[C@@H](CC(C)C)C(=O)N[C@@H](Cc2ccccc2)C(=O)N[C@@H](CCCNC(=N)N)C(=O)N2CCC[C@H]2C(=O)N[C@@H](CCCNC(=N)N)C(=O)N[C@@H](CC(N)=O)C(N)=O)C1=O) [NMU15]" measure="% Activity (FLIPR)" reading_unit=% numeric_result=100

Q) If you can, please state the reported % Activity (FLIPR) value of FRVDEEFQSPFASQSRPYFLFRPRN-NH2 [NMU4] .
A) 100

Q) If you can, please state the reported % Activity (FLIPR) value of Ac-C(Succinimide(1-Et,3-yl))ASQSRGYFLFRPRN-NH2 (SMILES CCN1C(=O)CC(SC[C@H](NC(C)=O)C(=O)N[C@@H](C)C(=O)N[C@@H](CO)C(=O)N[C@@H](CCC(N)=O)C(=O)N[C@@H](CO)C(=O)N[C@@H](CCCNC(=N)N)C(=O)NCC(=O)N[C@@H](Cc2ccc(O)cc2)C(=O)N[C@@H](Cc2ccccc2)C(=O)N[C@@H](CC(C)C)C(=O)N[C@@H](Cc2ccccc2)C(=O)N[C@@H](CCCNC(=N)N)C(=O)N2CCC[C@H]2C(=O)N[C@@H](CCCNC(=N)N)C(=O)N[C@@H](CC(N)=O)C(N)=O)C1=O) [NMU17] .
A) 100

Q) If you can, please state the reported % Activity (FLIPR) value of Ac-C((PEG)2 40 kDa)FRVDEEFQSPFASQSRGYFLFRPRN-NH2 [NMU9] .
A) 100

Q) If you can, please state the reported % Activity (FLIPR) value of Ac-C(PEG 20 kDa)C(PEG 20 kDa)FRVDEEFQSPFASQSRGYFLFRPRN-NH2 [NMU23] .
A) 90.2

Q) If you can, please state the reported % Activity (FLIPR) value of Ac-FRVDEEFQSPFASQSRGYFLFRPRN-NH2 [NMU2] .
A) 100

Q) If you can, please state the reported % Activity (FLIPR) value of Palmitoyl-C((PEG)2 40 kDa)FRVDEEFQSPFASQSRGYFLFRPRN-NH2 [NMU25] .
A) 96.4

Q) If you can, please state the reported % Activity (FLIPR) value of GYFLFRPRN-NH2 [NMU3] .
A) 100
